target-of-assay: BRD4 (Homo sapiens, UniProt O60885)
method-notes: Time resolved fluorescence resonance energy transfer (TR-FRET) binding assay, bromodomain BRD4
run-parameters: one of the FRET assays described; read-out: FRET BRD4 IC50
readout-label: IC50

Please review the entries below; each comes with its answer.
compound	target-of-assay	IC50
COc1nccc2c3ncc(-c4c(C)nnn4C)cc3n(C(c3cccc(F)c3)C3CCOCC3)c12 (single isomer, unassigned) [Example 21]	BRD4 (Homo sapiens, UniProt O60885)	< 1500 nM
[2H]C([2H])([2H])c1nnn(C)c1-c1cnc2c3c(OC)nc(C(C)=O)cc3n([C@H](c3ncccc3F)C3CCOCC3)c2c1 [Example 308]	BRD4 (Homo sapiens, UniProt O60885)	< 10 nM
COc1ccc2c3ncc(-c4c(C)nnn4C)cc3n(C(c3ccccc3F)C3CCOCC3)c2n1 (racemic) [Example 28]	BRD4 (Homo sapiens, UniProt O60885)	< 10 nM
Cc1nnn(C)c1-c1cnc2c3cc(Cl)ncc3n([C@H](c3ccccc3F)C3CCOCC3)c2c1 [Example 4]	BRD4 (Homo sapiens, UniProt O60885)	< 10 nM
[2H]C([2H])([2H])c1nnn(C)c1-c1cnc2c3c(NCC(F)(F)F)ncc(S(C)(=O)=O)c3n([C@H](c3ncccc3F)C3CCOCC3)c2c1 [Example 341]	BRD4 (Homo sapiens, UniProt O60885)	< 1 nM
Cc1cccnc1C(C1CCOCC1)n1c2cc(-c3c(C)nnn3C)ncc2c2ncc(C(C)(C)O)cc21 (single isomer, unassigned) [Example 373]	BRD4 (Homo sapiens, UniProt O60885)	< 1500 nM

get_value(item= Cc1nnn(C)c1-c1cnc2c3ccc(N4CCS(=O)(=O)C(C)C4)nc3n([C@H](c3ccccc3)C3CCOCC3)c2c1 (single isomer, unassigned; diastereomer b) [Example 218] , readout=IC50) returns < 1 nM

# IC50 (compound: [2H]C([2H])([2H])c1nnn(C)c1-c1cc2c(cn1)c1ncc(C(C)(C)O)cc1n2C(c1ncccc1F)C1CCOCC1 (single isomer, unassigned) [Example 366] ) is < 10 nM

Sure, the documented IC50 for Cc1nnn(C)c1-c1cnc2c3ccc(C(C)(C)O)nc3n([C@H](c3ccccc3)C3CCOCC3)c2c1 [Example 174] is < 1 nM

Entry COC(=O)c1cnc(OC)c2c3ncc(-c4c(C)noc4C)cc3n([C@H](c3ccccc3)C3CCOCC3)c12 [Example 140] ; IC50 = < 1 nM

IC50 measured on [2H]C([2H])([2H])c1nnn(C)c1-c1cnc2c3ccc(C4=CCSCC4)nc3n([C@H](c3ccccc3)C3CCOCC3)c2c1 [Example 203] = < 10 nM

GET /value?item= Cc1nnn(C)c1-c1cnc2c3ccc(N4CCS(=O)(=O)CC4C)nc3n([C@H](c3ccccc3)C3CCOCC3)c2c1 (stereo partly shown) [Example 210] &field=IC50 returns < 10 nM

The recorded IC50 for entry Cc1nnn(C)c1-c1cnc2c3ccnc(Cl)c3n([C@H](c3ccccc3F)C3CCOCC3)c2c1 [Example 5] equals < 10 nM

Entry source: patent US9725449B2
